Values compiled from patent US10517889B2.

# Test system: human SMAD7 mRNA
# assay comment: Antisense inhibition of human SMAD7 mRNA expression in Hep3B cells by 5-10-5 MOE gapmers, single concentration, electroporation, RT-PCR (Example 1, Study 1 and 2)
# Type: cell-based
# measurement context: Study 2, electroporation with 15,000 nM antisense oligonucleotide, 5-10-5 MOE gapmers targeting SEQ ID NO: 1 and 2
Strand notation (5' to 3'): a small letter for the sugar, then the base; units joined by * are phosphorothioate-linked, units joined directly phosphodiester-linked; [ ] holds rarer units or linkages, { } end groups; capitals alone tell only the bases. e = 2'-O-(2-methoxyethyl) (MOE); [5mC] = 5-methylcytosine; d = 2'-deoxy (DNA)
observed property: % inhibition of SMAD7 mRNA expression (%)
One number for each entry, in %.

The cases that follow already have their % inhibition of SMAD7 mRNA expression on record.
771488 (antisense e[5mC]*eT*eG*eA*eT*d[5mC]*dT*dG*d[5mC]*dA*d[5mC]*dG*dG*dT*dA*eA*eA*eG*e[5mC]*e[5mC]) [compound 771488]	53
771524 (antisense eT*eT*eG*e[5mC]*eA*dT*dG*dA*dA*dA*dA*dG*d[5mC]*dA*dA*eG*e[5mC]*eA*e[5mC]*eT) [compound 771524]	19
771501 (antisense eG*e[5mC]*eA*e[5mC]*eG*d[5mC]*dG*dG*d[5mC]*dT*dA*d[5mC]*d[5mC]*dG*dG*e[5mC]*eT*eG*eT*eT) [compound 771501]	16
771510 (antisense eA*eG*eT*eG*eT*dG*dG*d[5mC]*d[5mC]*dT*dG*d[5mC]*dT*d[5mC]*dA*eG*e[5mC]*eT*e[5mC]*eA) [compound 771510]	35
771596 (antisense eG*eA*e[5mC]*eA*eA*dG*dG*dA*dT*dG*dA*dA*dA*dA*dT*eA*eA*eT*eT*eG) [compound 771596]	0

For every item in the list below, what is its measured % inhibition of SMAD7 mRNA expression?
1. 771543 (antisense e[5mC]*e[5mC]*e[5mC]*e[5mC]*eA*dA*d[5mC]*dA*dA*dT*dT*d[5mC]*dT*dT*dT*eT*e[5mC]*eA*eT*eA) [compound 771543]
2. 771591 (antisense e[5mC]*eA*eG*eA*eA*dG*d[5mC]*d[5mC]*dT*dG*dT*dG*dG*dA*d[5mC]*eA*eG*eG*e[5mC]*e[5mC]) [compound 771591]

Result block:
1: 36; 2: 50

----------
Would you mind telling me the reported % inhibition of SMAD7 mRNA expression of each entry?
# Test system: human SMAD7 mRNA
# assay comment: Antisense inhibition of human SMAD7 mRNA expression in Hep3B cells by 3-10-3 cEt gapmers, 10,000 nM, electroporation (Example 2)
# Type: cell-based
# measurement context: Hep3B cells, electroporation, 10,000 nM antisense oligonucleotide, approximately 24 hours, RTS5062, relative to untreated control cells
Strand notation (5' to 3'): a small letter for the sugar, then the base; units joined by * are phosphorothioate-linked, units joined directly phosphodiester-linked; [ ] holds rarer units or linkages, { } end groups; capitals alone tell only the bases. k = constrained ethyl (cEt); [5mC] = 5-methylcytosine; d = 2'-deoxy (DNA)
One number for each entry, in %.

799560 (kG*kG*k[5mC]*dA*d[5mC]*dA*dG*d[5mC]*dT*dT*d[5mC]*dT*dA*kT*kT*k[5mC]; antisense) [compound 799560]	18
799736 (antisense kT*kT*k[5mC]*dT*dA*d[5mC]*dA*d[5mC]*d[5mC]*dT*dT*dT*dT*kA*kA*kG) [compound 799736]	56
799574 (k[5mC]*kA*kT*dT*d[5mC]*dA*dG*dG*dG*dT*dT*dT*dA*kA*kA*kA; antisense) [compound 799574]	7
799634 (k[5mC]*kA*kG*dA*d[5mC]*dT*dG*d[5mC]*d[5mC]*dA*dA*dA*dT*k[5mC]*kA*k[5mC]; antisense) [compound 799634]	23
799755 (antisense kG*kA*kA*dA*dG*dT*dT*dA*d[5mC]*dA*dG*dA*dA*k[5mC]*kT*k[5mC]) [compound 799755]	77
799302 (antisense kA*kA*kA*d[5mC]*d[5mC]*dA*d[5mC]*dA*d[5mC]*dA*dT*dT*d[5mC]*k[5mC]*kA*kA) [compound 799302]	39
799563 (kA*kA*kA*dA*d[5mC]*dA*dA*dA*d[5mC]*dA*dA*dG*dG*kG*kT*k[5mC]; antisense) [compound 799563]	68
799595 (k[5mC]*kT*k[5mC]*dT*dG*dA*dA*d[5mC]*dG*dG*dA*dA*dA*kG*kA*kA; antisense) [compound 799595]	35
799718 (antisense k[5mC]*kT*kG*d[5mC]*dT*dA*dG*dG*dG*dA*dT*dA*d[5mC]*kT*kG*kA) [compound 799718]	65
799758 (antisense k[5mC]*kA*k[5mC]*d[5mC]*dG*dT*dT*dA*d[5mC]*dT*dG*dG*dA*k[5mC]*kA*k[5mC]) [compound 799758]	57

For each listed entry, give its % inhibition of SMAD7 mRNA expression.
1. 799619 (kA*k[5mC]*kG*dA*d[5mC]*d[5mC]*dA*dG*dG*d[5mC]*d[5mC]*dT*dG*kT*k[5mC]*kG; antisense) [compound 799619]
2. 799817 (antisense kT*kA*k[5mC]*dT*dG*dA*dT*dT*d[5mC]*dA*dT*dG*dA*kG*kG*kG) [compound 799817]

Result block:
1: 9; 2: 45

----------
# assay comment: Plasma chemistry markers after subcutaneous administration in beagle dogs (Example 8)
# measurement context: 30 mg/kg subcutaneous days 1, 3, 5, 8, 15, 22, 29, plasma at day 31
Please provide measured Creatine for the entries that follow.
One number for each entry, in mg/dL.

Consider the reported Creatine for these substances:
790615 (CCAATGAGAATGCTTC; 3-10-3 cEt gapmer, further chemistry not given here) [compound 790615]	0.8
829994 (GGAGGCAGGGCCGCGA; 3-10-3 cEt gapmer, further chemistry not given here) [compound 829994]	0.7

Note: attention shifts to another entry.
Note to self: Creatine recorded for 830121 (AGAATCAAGCCCTGGC; 3-10-3 cEt gapmer, further chemistry not given here) [compound 830121] was 0.9

----------
# Test system: human SMAD7 mRNA
# assay comment: Antisense inhibition of human SMAD7 mRNA expression in Hep3B cells by 3-10-3 cEt gapmers, 10,000 nM, electroporation (Example 2)
# Format: cell-based
# measurement context: Hep3B cells, electroporation with 10,000 nM antisense oligonucleotide, approximately 24 hours, primer probe set RTS5062, relative to untreated control cells
Strand notation (5' to 3'): a small letter for the sugar, then the base; units joined by * are phosphorothioate-linked, units joined directly phosphodiester-linked; [ ] holds rarer units or linkages, { } end groups; capitals alone tell only the bases. k = constrained ethyl (cEt); [5mC] = 5-methylcytosine; d = 2'-deoxy (DNA)
Please provide measured % inhibition of SMAD7 mRNA expression for the entries that follow.
Give bare numbers, in %.

Here are 5 substances together with their reported answers.
799383 (antisense k[5mC]*kA*k[5mC]*dA*dA*dA*dA*dA*d[5mC]*d[5mC]*dA*dA*dG*kG*kT*kT) [compound 799383]	40
799249 (antisense kG*k[5mC]*kG*dG*d[5mC]*d[5mC]*dA*d[5mC]*dG*dA*d[5mC]*dA*dG*kT*kA*kT) [compound 799249]	26
799110 (antisense kA*kG*kG*d[5mC]*dA*dG*dT*dG*d[5mC]*dT*dG*dA*dG*k[5mC]*kT*kG) [compound 799110]	33
799112 (antisense kG*kG*kG*dA*dG*d[5mC]*dA*dG*dG*d[5mC]*dA*dG*dT*kG*k[5mC]*kT) [compound 799112]	58
799458 (antisense kT*kT*kG*dA*dA*dA*dA*d[5mC]*d[5mC]*d[5mC]*dA*dA*d[5mC]*k[5mC]*k[5mC]*kT) [compound 799458]	3

Please state, for each entry, its recorded % inhibition of SMAD7 mRNA expression.
1. 798991 (antisense k[5mC]*k[5mC]*kT*dG*dA*d[5mC]*dA*dA*dG*dT*dG*dA*dA*kA*kT*kG) [compound 798991]
2. 799322 (antisense kG*kG*kA*dG*dG*dG*dT*dA*dT*dG*d[5mC]*dA*d[5mC]*kA*k[5mC]*kT) [compound 799322]

Result block:
1: 23; 2: 83

// each listed substance needs a value for % inhibition of SMAD7 mRNA expression
1. 799247 (antisense kA*k[5mC]*kG*dA*d[5mC]*dA*dG*dT*dA*dT*d[5mC]*dT*dG*kG*kG*k[5mC]) [compound 799247]
2. 798950 (antisense k[5mC]*kA*kA*dA*dG*dA*dG*d[5mC]*dG*dA*dA*dA*d[5mC]*kA*kA*kA) [compound 798950]
3. 799198 (antisense kG*kT*k[5mC]*d[5mC]*dT*dT*dT*d[5mC]*dT*d[5mC]*dT*d[5mC]*dT*k[5mC]*kA*kA) [compound 799198]
4. 799250 (antisense kT*kG*k[5mC]*dG*d[5mC]*dG*dG*d[5mC]*d[5mC]*dA*d[5mC]*dG*dA*k[5mC]*kA*kG) [compound 799250]

Result block:
1. 61
2. 0
3. 17
4. 21
